test system: TO-3-N3 (biotin conjugate); assay: pull-down binding Z-score (relative to library population); higher = stronger binding; conditions: RNA library: Library-2
Let's look at some sequences and their measured pull-down binding Z-score.
Write the number on its own, no unit after it.

SEQ_STRING | RECORDED_METRIC | NUMBER
CAGUGACAUGCGUUUAAC [hsa-mir-4485] | pull-down binding Z-score | 0.345
UAUAUUCGGUUUAUUGACAUGGAAUAUA [hsa-mir-381] | pull-down binding Z-score | 0.718

Input GUUGUUGUGAGCAAUAGUAAGGAAGCAAU [hsa-mir-34a] . Output pull-down binding Z-score: 0.276

// pull-down binding Z-score lookup, sequence = CAGAGACUUGAAGAUGUCUUUG [IAV_invivo_M1_M2_7_Motif_2+IAV_invivo_M1_M2_7_Motif_2] , result: -0.637

Given item UCCACCCCCAGAGAAUCCCUAAACCGGGGGUGGA [hsa-mir-1289-1] , the value recorded as its pull-down binding Z-score is -0.51

====

Known pull-down binding Z-score of a selection of sequences
system: TO-N3 (biotin conjugate); experiment: pull-down binding Z-score (relative to library population); higher = stronger binding; settings: RNA library: Library-2

Check out these entries, answers already filled in.
SEQ_STRING | pull-down binding Z-score
CGGUACCCACUGCUGAGGGUGGGGACCA [hsa-mir-3691] | 0.55
UGAUAAAUUCA [SHAPE_invivo_SARS-CoV-2_Motif_325] | -0.712
CUAUGGCCCCCCUCCUCUCUGAAAGCAAGGCCACUUG [hsa-mir-8081] | 0.738
CACCAAAGGGUUAAGGGUUUGCUCUGGAG [hsa-mir-4653] | 0.124
UGGAGGUGAUGGGGGCAGGGGAUGGGUCUCACCCUCCC [hsa-mir-5088] | 3.11

Now let's try a different one.
Memo: UCCCCUCAGGA [hsa-mir-5703] , reported pull-down binding Z-score: -0.256

====

system: TO-N3-2 (biotin conjugate); test: pull-down binding Z-score (relative to library population); higher = stronger binding; settings: RNA library: Library-2
Item-by-item account of pull-down binding Z-score
The reply should be a number, written without any unit.

SEQ_STRING | RECORDED_METRIC | NUMBER
GAGUAUUAGGUUUGAAAACCCUUGCUACUC [SHAPE_invivo_SARS-CoV-2_Motif_136] | pull-down binding Z-score | -0.731

Consider the record given below.
// sample `GCAGGAGCCUUAAAUAAGGCUACUAACAAUGC` , its pull-down binding Z-score was -0.521

====

tested on: TO-3-N3 (biotin conjugate); test: pull-down binding Z-score (relative to library population); higher = stronger binding; settings: RNA library: Library-2
RECORDED_METRIC: pull-down binding Z-score
A bare number is all that is needed in reply.

SEQ_STRING | pull-down binding Z-score
ACGUGACCUCCUGGGCCUG [hsa-mir-6770-1_6770-3_6770-2] | 0.505
CGGCAUCAUAUGGGUUGCAACUGAGGGAGCCUUGAAUACACCAAAAGAUCACAUUGGCACCCGCAAUCCUGCUAACAAUGCUG [SHAPE_invitro_SARS-CoV-2_Motif_522] | -0.511
CACAUCUAGGUUUCGUCCGGGUGUG [SARS-CoV-2-Conserved-Structured-16_Interval-158-277_Motif_2] | 0.468

Moving on to the next sequence.
Measured pull-down binding Z-score, UGUUCAUGUCUCUCUGUGCACAGGGGACGAGAGUCA [hsa-mir-4420] : -0.612

All values here come from the supplement of paper PMC11865577.
